Every entry's value here was drawn from PubChem BioAssay (NCATS).

- System: CP238
- assay info: qHTS profiling for inhibitors of Plasmodium falciparum proliferation (AID 504749); note: nearly all actives have a fitted effect of over 60% in size
- measurement context: P. falciparum in erythrocytes, SYBR Green DNA, 72 h; series mostly up to 28.7 µM
Records with an inconclusive call do not appear. Calls of active or inactive are those of the source. Calls come from the whole dose curve; as a rule, active = well fitted inhibition curve with a large enough effect; inconclusive = small, poorly fitted or top-dose-only effect; inactive = flat fitted curve, though single readings scatter.
Classes to choose from: T (active), F (inactive)

Could you check what this test reported for C=C1/C(=C\C=C2/CCC[C@]3(C)[C@@H]([C@H](C)/C=C/[C@@H](O)C4CC4)CC[C@@H]23)C[C@@H](O)C[C@@H]1O ?
F

Dear colleague, could you share the recorded outcome for CC1=C[C@@H](O)CC(C)(C)[C@@H]1/C=C/C(C)=C/C=C/C(C)=C/C=C/C=C(C)/C=C/C=C(C)/C=C/C1=C(C)C[C@H](O)CC1(C)C when you have a moment?
F

Entry CC[C@]1([C@H]2O[C@@H]([C@@H]3O[C@](O)(CO)[C@@H](C)C[C@H]3C)C[C@H]2C)CC[C@@H]([C@]2(C)CC[C@@]3(C[C@@H](O)[C@@H](C)[C@@H]([C@H](C)[C@H](OC)[C@H](C)C(=O)O)O3)O2)O1 : call = ?
T

Any idea what this test logged for CC1CN(c2c(F)c(N)c3c(=O)c(C(=O)O)cn(C4CC4)c3c2F)CC(C)N1 (centres undefined) ?
F

// return assay outcome for CCCCC(=O)OC1CCC2C3CCc4cc(O)ccc4C3CC[C@]12C (some centres undefined)
F

Can you look up the reported call for C[S+](C)CC[C@H](N)C(=O)O for me?
F

Hello, I am checking results. What call was entered for O=C(O)c1ccc(N[C@@H]2OC[C@@H](O)[C@@H](O)[C@@H]2O)cc1 ?
F

So what was the verdict on NC(=O)NC(CCC(=O)O)C(=O)O (centres undefined) in this test?
F

Short answer needed: outcome of this test for Nc1ncn(C2C[C@H](O)[C@@H](CO)O2)c(=O)n1 (some centres undefined) ?
F

Lab log entry: Cc1cc2nc3c(=O)[nH]c(=O)nc-3n(CC(O)C(O)C(O)COP(=O)(O)O)c2cc1C (centres undefined) — outcome as called in the assay?
F

Outcome? Cc1c(C)c2c(c(C)c1O)CCC(C)(CCCC(C)CCCC(C)CCCC(C)C)O2 (centres undefined)
F

What is the recorded call for this compound in the test? C/C(=C(/CCOC(=O)C(C)C)SS/C(CCOC(=O)C(C)C)=C(\C)N(C=O)Cc1cnc(C)nc1N)N(C=O)Cc1cnc(C)nc1N
F

Give the logged outcome of this assay for the following compound: CC(=O)C1(O)Cc2c(O)c3c(c(O)c2C(OC2CC(N)C(O)C(C)O2)C1)C(=O)c1c(O)cccc1C3=O (centres undefined)
T

Entry C[C@H]1[C@@H](OC(=O)CCC(=O)O)OC2OC3(C)CC[C@H]4[C@H](C)CC[C@@H]1[C@@]24OO3 (some centres undefined) : call = ?
T

What did this assay record as the result for CC1(C)OC[C@@H]2O[C@@]3(C(=O)O)OC(C)(C)O[C@@H]3[C@@H]2O1 ?
F

Each compound tested received a call. Report the one for C=C1NC(=O)c2cc(CN(C)c3ccc(C(=O)N[C@@H](CCC(=O)O)C(=O)O)s3)ccc2N1 .
F

GET /call?item= CC(=O)OCC(=O)[C@@]1(O)CCC2C3CCC4=CC(=O)C=CC4(C)C3C(O)C[C@]21C (some centres undefined) returns the recorded outcome of this test.
F

For this compound, state the assay outcome: COc1cc(/C=C2\CCC/C(=C\c3ccc(O)c(OC)c3)C2=O)ccc1O
T

Tell me the assay call for Nc1nc(F)nc2c1ncn2[C@@H]1O[C@H](CO)[C@@H](O)[C@H]1O please.
F

Query: recorded result category for CCOC(=O)C(CCc1ccccc1)NC(C)C(=O)N1Cc2cc(OC)c(OC)cc2CC1C(=O)O (centres undefined) in this test
F

Can you look up the reported call for CCCCCCCCCCCCCCCC(=O)OCC(COP(=O)(O)OCC[N+](C)(C)C)OC(=O)CCCCCCCCCCCCCCC (centres undefined) for me?
F

Outcome logged for CCN(CC)C(=O)Nc1ccc(OC[C@H](O)CNC(C)(C)C)c(C(C)=O)c1 in this assay:
F

GET /call?item= O=C(O)CC(O)CC(O)/C=C/c1c(C2CC2)nc2ccccc2c1-c1ccc(F)cc1 (centres undefined) returns the recorded outcome of this test.
F

GET /call?item= NCCCCC(N)C(=O)O (centres undefined) returns the recorded outcome of this test.
F

Short answer needed: outcome of this test for COc1ccc(C(=O)/C(Br)=C/C(=O)O)cc1 ?
F

Dear all, I need the recorded test outcome for CC[C@@H](C)C(N)C(=O)O (some centres undefined) , thank you.
F

Hello, I am checking results. What call was entered for CCC(=O)OC1C(N(C)C)CC(C)O[C@H]1O[C@H]1[C@H](C)[C@@H](O[C@H]2CC(OC)[C@@H](O)C(C)O2)[C@H](C)C(=O)O[C@@H](CC)[C@](C)(O)[C@@H](O)[C@H](C)C(=O)[C@@H](C)C[C@]1(C)O (some centres undefined) ?
F

Hi, do you know how CC1(C)C2CC[C@]1(C)[C@@H](O)C2 came out in this test?
F

Could you kindly confirm the outcome this assay logged for CC(=O)OC1C([N+]2(C)CCCCC2)C[C@H]2C3CC[C@H]4C[C@H](OC(C)=O)C([N+]5(C)CCCCC5)CC4(C)C3CCC12C (some centres undefined) ?
F

Returns: the outcome recorded for CC(=O)CC(c1ccccc1)C1C(=O)Oc2ccccc2C1=O (centres undefined) in this assay.
F

Any idea what this test logged for C=C[C@@]1(C)C[C@H](OC(=O)CSC(C)(C)CNC(=O)[C@@H](N)C(C)C)[C@@]2(C)C(C)CC[C@@]3(CCC(=O)[C@@H]32)[C@H](C)[C@H]1O (some centres undefined) ?
T

Just curious, what result did CCC(C(=O)O)C1OC(C(C)C(O)C(C)C(=O)C(CC)C2OC3(C=CC(O)C4(CCC(C)(C5CCC(O)(CC)C(C)O5)O4)O3)C(C)CC2C)C(C)CC1C (centres undefined) get here?
T

What outcome does the record of this test show for CC(=O)O[C@]1(C(C)=O)CCC2C3CCC4=CC(=O)CCC4(C)C3(F)C(O)CC21C (some centres undefined) ?
F

Assay outcome for COc1ccc2cc1Oc1cc3c(cc1OC)CC[N+](C)(C)C3Cc1ccc(cc1)Oc1c(OC)c(OC)cc3c1C(C2)[N+](C)(C)CC3 (centres undefined) : what was it?
F
